experimental system: DNA gyrase (Escherichia coli) (UniProt P0AES6+P0AES4)
experiment: In vitro antibacterial activity against gram-negative organism Klebsiella pneumoniae ATCC 8045
Type: functional
attribute measured: MIC (µg/mL)
One number for each entry, in µg/mL.

In the examples that follow, each entry is paired with its recorded MIC.
molecule: CCc1c(N2CCC(N)C2)c(F)cn2c(=O)c(C(=O)O)cc(C3CC3)c12 (stereo unspecified)
measured: 0.1
//
molecule: Cc1c(N2C[C@@H](N)C[C@H]2C)c(F)cn2c(=O)c(C(=O)O)cc(C3CC3)c12
measured: 0.01
//
molecule: Cc1c(N2C[C@@H](N)[C@@H](C)C2)c(F)cn2c(=O)c(C(=O)O)cc(C3CC3)c12
measured: 0.005

For each entry beneath this line, provide reported MIC.
1. Cc1c(N2CCC(N)C2)c(F)cn2c(=O)c(/C(O)=C/[N+](=O)[O-])cc(C3CC3)c12 (stereo unspecified)
2. Cc1c(N2C[C@H]3CCCN[C@H]3C2)c(F)cn2c(=O)c(C(=O)O)cc(C3CC3)c12 (single isomer, unassigned)
3. Cc1ccc(S(=O)(=O)O)cc1.NC1CCN(c2nc3c(cc2F)c(=O)c(C(=O)O)cn3-c2ccc(F)cc2F)C1 (stereo unspecified) [TOSUFLOXACIN TOSYLATE]

*A*
[0.02, 0.005, 0.02]
